Recorded values, source ChEMBL document CHEMBL1201862.

tested on: A498; test: NCI tumour cell line growth inhibition, 48 h
Calls of active or inactive are those of the source. Cut-off read from the data, not from the text of the source: active = GI50 up to about 1.1 µM and inactive = higher.
Allowed answers: class 1 (active), class 0 (inactive)

Request: Can you look up the reported call for O=C(O[C@@H](/C=C/c1ccccc1)P1(=O)N(Cc2ccccc2)[C@@H]2CCCC[C@H]2N1Cc1ccccc1)c1ccccc1 for me?
Result: class 0

Request: Can you look up the reported call for COC(=O)C1=C(C)NC(C)=C([N+](=O)[O-])C1c1cccc(NO)c1 (configuration not stated) for me?
Result: class 0

---

system: TK-10; assay: NCI tumour cell line growth inhibition, 48 h
The source made the active and inactive calls. Rule as the data show it: active = GI50 up to about 1.1 µM and inactive = higher.
readout: GI50

INSERT INTO assay_data (compound, measured_target, observed_result) VALUES
  ('OC(c1ccc2c(c1)OCO2)c1ccc2c(c1)OCO2', 'TK-10', '> 100 µM (inactive)'),
  ('CN(C)CC1CCC/C(=C\c2ccc(OC(=O)c3ccc(Cl)cc3)cc2)C1=O (configuration not stated)', 'TK-10', '1.95 µM (inactive)'),
  ('Cc1cc(N(CCC#N)CCC#N)ccc1/C=C1\N=C(c2cc([N+](=O)[O-])ccc2Cl)N(NC(=O)c2ccc(/N=C\c3ccc(N(CCC#N)S(C)(=O)=O)cc3C)cc2)C1=O', 'TK-10', '> 100 µM (inactive)');

Attention now shifts to the item below.
Request: Please indicate recorded GI50 of CC(C)(C)OC(=O)N1CCC2(CC1)C(=O)NCN2c1ccccc1 measured with TK-10.
Result: > 100 µM (inactive)
